Numbers sourced from paper PMC8147293.

Listed next: entries and their corresponding IC50.
System: Mammalian Vero cells
method_description: Cytotoxicity test on Vero cells (resazurin)
Format: cell-based
condition_parameters: Chlorocebus sabaeus; Table S1; cultured Vero cells; read-out: Toxicity IC50 Vero cell
Method: Mammalian Vero cells (EACC No. 84113001), cultured as previously reported, were used to determine the cytotoxicity of the tested compounds [56]. In short, 1.25 × 10^4 Vero cells·mL^−1 were treated by adding the compounds at a concentration range from 400 to 1 µM in 96-well microplates (200 µL·well^−1) at 37 °C for 48 h. […] Finally, cell viability was determined following the same procedure as described to assess the trypanocidal activity in the epimastigotes. […]

compound | tested_system | reading_unit | IC50
Brc1ccc(C[Se][Se]Cc2ccc(Br)cc2)cc1 [compound 2] | Mammalian Vero cells | µM | 30.7
N#C[Se]Cc1cccc([N+](=O)[O-])c1 [compound 17] | Mammalian Vero cells | µM | 81.2
N#C[Se]Cc1cccc2cccnc12 [compound 25] | Mammalian Vero cells | µM | 12.6
CSc1ccc(C[Se]C#N)cc1 [compound 9] | Mammalian Vero cells | µM | 67.3
O=S(=O)(Nc1ccc([Se][Se]c2ccc(NS(=O)(=O)c3ccc4ccccc4c3)cc2)cc1)c1ccc2ccccc2c1 [compound 44] | Mammalian Vero cells | µM | 30.8
c1cnc2c(C[Se][Se]Cc3cccc4cccnc34)cccc2c1 [compound 26] | Mammalian Vero cells | µM | 19.6
